Target: Arabidopsis HPPD (Arabidopsis thaliana)
Construct: made in house; host or cells: E. coli BL21 (DE3) codon+ RP
Sequence (P93836 whole entry): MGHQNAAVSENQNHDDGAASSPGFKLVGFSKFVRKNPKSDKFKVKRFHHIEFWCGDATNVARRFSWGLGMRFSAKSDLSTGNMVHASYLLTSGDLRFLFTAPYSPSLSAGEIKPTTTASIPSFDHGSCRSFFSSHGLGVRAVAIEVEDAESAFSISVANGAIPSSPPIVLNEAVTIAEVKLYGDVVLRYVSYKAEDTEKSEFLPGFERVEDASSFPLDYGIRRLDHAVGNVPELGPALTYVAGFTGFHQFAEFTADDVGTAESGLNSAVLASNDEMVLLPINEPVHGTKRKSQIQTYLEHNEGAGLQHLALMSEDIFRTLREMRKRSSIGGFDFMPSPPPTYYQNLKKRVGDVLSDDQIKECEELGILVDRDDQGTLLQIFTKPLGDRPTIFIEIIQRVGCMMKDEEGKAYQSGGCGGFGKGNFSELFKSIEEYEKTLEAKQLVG
Test: Dissociation of enzyme/inhibitor complexes by exchange with 14C-labelled inhibitor (koff; Kd = koff/kon)
Format: binding
Conditions: Kd, value obtained + glycerol (in parentheses)
Parameter Measured: pKd
To interpret pKd, take it as minus log10 of a concentration measured in moles per litre.

[ask] Using the record for CS(=O)(=O)c1ccc(C(=O)C2C(=O)CCCC2=O)c([N+](=O)[O-])c1 [Structure I, reference compound] , report its pKd.
[reply] 10.68

====

Target: P. fluorescens HPPD (Pseudomonas fluorescens)
Sequence (A0ACG8AE61 entry or part of it): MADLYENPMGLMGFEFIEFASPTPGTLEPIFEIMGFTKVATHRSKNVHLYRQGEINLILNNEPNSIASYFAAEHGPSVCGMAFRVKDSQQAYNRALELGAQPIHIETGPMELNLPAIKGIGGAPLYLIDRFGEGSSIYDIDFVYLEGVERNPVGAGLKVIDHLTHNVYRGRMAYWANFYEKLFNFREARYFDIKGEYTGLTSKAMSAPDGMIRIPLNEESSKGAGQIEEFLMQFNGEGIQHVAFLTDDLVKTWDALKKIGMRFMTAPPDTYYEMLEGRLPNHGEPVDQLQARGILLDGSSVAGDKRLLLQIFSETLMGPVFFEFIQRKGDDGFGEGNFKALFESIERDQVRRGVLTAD
Experiment: Dissociation of enzyme/inhibitor complexes by exchange with 14C-labelled inhibitor (koff; Kd = koff/kon)
Assay type: binding
Conditions: without glycerol; Kd = koff/kon; read-out: Kd
Parameter Measured: Kd (nM)
Field format: number, assumed nM, no unit text.

[ask] Using the record for CS(=O)(=O)c1cc(C(F)(F)F)ccc1C(=O)C(C#N)C(=O)C1CC1 (stereo not shown) [Structure IV, reference compound] , report its Kd.
[reply] 12.2

[ask] What about Cc1nc(C(F)(F)F)ccc1C(=O)C1C(=O)C2CCC(C2)C1=O (stereo not shown) ?
[reply] 2.17
